Experiment: NCI Yeast Anticancer Drug Screen. Data for the mec2-1 strain (AID 157)
Settings: S. cerevisiae mec2-1 strain, at 50.0 µM (retest, dose inferred, filed as 5.0), stronger effect = higher value
The panel holds about 79,000 compounds, 15% with a hit somewhere; the sample as a whole holds those more often.
# if value of growth inhibition reaches 40%, tag fulfilled; if it stays below, tag not fulfilled

COMPOUND: C=CCOC(=O)N(C(=O)OCC=C)C(Cc1ccc(O)cc1)C(=O)NNc1ccccc1 (stereo unspecified)
CLASSIFICATION: not fulfilled
--
COMPOUND: Clc1ccc(/C(=C/c2ccccc2)Cn2ccnc2)cc1
CLASSIFICATION: fulfilled
--
COMPOUND: Clc1ccccc1CN1COc2c(cc(Cl)c3cccnc23)C1
CLASSIFICATION: fulfilled
--
COMPOUND: CCCCCCCOc1ccc(C=O)cc1OC
CLASSIFICATION: not fulfilled
--
COMPOUND: Cc1ccc(C2(c3ccc(F)cc3)OC(=O)c3ccccc32)c(O)c1 (stereo unspecified)
CLASSIFICATION: fulfilled
--
COMPOUND: O=C(Cc1ccccc1)c1ccccc1C(=O)NNc1ccccc1
CLASSIFICATION: not fulfilled
--
COMPOUND: COC1=C2C[C@@H](C)C[C@@H](OC)[C@@H](O)[C@H](C)/C=C(\C)[C@@H](OC(N)=O)[C@H](OC)/C=C\C=C(/C)C(=O)NC(=CC1=O)C2=O
CLASSIFICATION: fulfilled
--
COMPOUND: CC(=O)OC(C)(C)N=Nc1ccc(Br)cc1
CLASSIFICATION: fulfilled
--
COMPOUND: CCCCCN(CCCCC)CC(O)c1cccc2cc(Cl)ccc12 (stereo unspecified)
CLASSIFICATION: fulfilled
--
COMPOUND: CCCCCOC(=O)c1ccc(O)cc1
CLASSIFICATION: fulfilled
--
COMPOUND: CCCCN(CCCC)CC(O)Cc1cc2ccccc2c2ccccc12 (stereo unspecified)
CLASSIFICATION: fulfilled

----------
The following compounds are shown together with reported growth inhibition values.
Test: NCI Yeast Anticancer Drug Screen. Data for the bub3 strain (AID 167)
Details: S. cerevisiae bub3 mutant strain, at 50.0 µM (retest, dose inferred, filed as 5.0), stronger effect = higher value
This is part of a sample that, as a whole, favours compounds with a hit. Of some 79,000 tested, about 15% had one in any assay.
RESULT_TYPE: growth inhibition (%)

COMPOUND: CN1C(/C=C/c2ccc(O)c3ncccc23)CCC2CCCC(O)C21 (stereo not drawn)
RESULT_TYPE: growth inhibition
QUANTITY_UNIT: %
READING: 96
--
COMPOUND: Cc1ccccc1Sc1ncnc2ccccc12
RESULT_TYPE: growth inhibition
QUANTITY_UNIT: %
READING: 7
--
COMPOUND: Nc1ncnc2c1cnn2C1CCCCC1
RESULT_TYPE: growth inhibition
QUANTITY_UNIT: %
READING: 58
--
COMPOUND: CCCCCCCCCCCOc1cccc(N2C(N)=NC(N)=NC2(C)C)c1
RESULT_TYPE: growth inhibition
QUANTITY_UNIT: %
READING: 96
--
COMPOUND: CC(C)(CN1CCCCC1)C(=O)CC(SCCS(=O)(=O)O)c1ccc(Cl)c(Cl)c1 (stereo not drawn)
RESULT_TYPE: growth inhibition
QUANTITY_UNIT: %
READING: 99
--
COMPOUND: O=[N+]([O-])/C(C(Cl)=C(Cl)Cl)=C(/Cl)SCc1ccccc1
RESULT_TYPE: growth inhibition
QUANTITY_UNIT: %
READING: 99
--
COMPOUND: NCCOB(c1ccccc1)c1ccccc1
RESULT_TYPE: growth inhibition
QUANTITY_UNIT: %
READING: 99
--
COMPOUND: Nc1cc2c(cc1/C=C(\C(=O)O)c1ccccc1)OCO2
RESULT_TYPE: growth inhibition
QUANTITY_UNIT: %
READING: 2
--
COMPOUND: O=C(Nc1ccc(Cl)cc1)OCCOCCOC(=O)Nc1ccc(Cl)cc1
RESULT_TYPE: growth inhibition
QUANTITY_UNIT: %
READING: 97
--
COMPOUND: O=C1CCCCO1
RESULT_TYPE: growth inhibition
QUANTITY_UNIT: %
READING: -3
--
COMPOUND: Cc1c(C(=O)O)nc(C(Br)(Br)Br)[nH]c1=O
RESULT_TYPE: growth inhibition
QUANTITY_UNIT: %
READING: 2
--
COMPOUND: Cc1[nH]nc(C(=O)N/N=C/c2ccccc2Cl)c1N=NN(C)C
RESULT_TYPE: growth inhibition
QUANTITY_UNIT: %
READING: 88
--
COMPOUND: CC(c1ccccc1)c1cc(C(C)(C)C)ccc1O (stereo not drawn)
RESULT_TYPE: growth inhibition
QUANTITY_UNIT: %
READING: 99
--
COMPOUND: O=c1c2cc(Cl)ccc2[nH]c2cc(O)cc(O)c12
RESULT_TYPE: growth inhibition
QUANTITY_UNIT: %
READING: 39
--
COMPOUND: O=[N+]([O-])c1ccc2c(c1)/C(=N\O)c1cc(Br)ccc1-2
RESULT_TYPE: growth inhibition
QUANTITY_UNIT: %
READING: 3
--
COMPOUND: CCOC(=O)C(=N\Nc1c(C)cccc1C)/C(C)=N\NC(N)=S
RESULT_TYPE: growth inhibition
QUANTITY_UNIT: %
READING: 4
--
COMPOUND: Cc1nn(-c2ccc(S(=O)(=O)[O-])cc2)c([O-])c1N=[N+](C)c1ccc(-c2ccc(N=Nc3ccc4c(S(=O)(=O)[O-])cc(S(=O)(=O)[O-])c(N)c4c3[O-])c([O-])c2)cc1[O-].[Cu+2].[Cu+2].[Na+]
RESULT_TYPE: growth inhibition
QUANTITY_UNIT: %
READING: -11
--
COMPOUND: CCCCCCC(/C=C/c1ccccc1)=N\O
RESULT_TYPE: growth inhibition
QUANTITY_UNIT: %
READING: 94
--
COMPOUND: CC(/C=C/NNC1=NC(c2ccccc2)C(c2ccccc2)=NN1)Sc1ccccc1N (stereo not drawn)
RESULT_TYPE: growth inhibition
QUANTITY_UNIT: %
READING: 25
--
COMPOUND: CS(=O)(=O)c1nnnn1-c1ccccc1
RESULT_TYPE: growth inhibition
QUANTITY_UNIT: %
READING: 95
--
COMPOUND: CCN(CC)CCC(=O)NC1c2ccc(Cl)cc2Oc2c(C)cccc21 (stereo not drawn)
RESULT_TYPE: growth inhibition
QUANTITY_UNIT: %
READING: 7
--
COMPOUND: COc1ccc(C(=O)C2=C(C)Nc3ccc(Br)cc3S2)cc1
RESULT_TYPE: growth inhibition
QUANTITY_UNIT: %
READING: 38
--
COMPOUND: O=S1(=O)CCN(c2ccccc2CC(c2c[nH]c3ccccc23)c2c[nH]c3ccccc23)CC1
RESULT_TYPE: growth inhibition
QUANTITY_UNIT: %
READING: 89
